- Target of assay: UniProt:Q7DHH4
- Experiment: Binding affinity to Staphylococcus aureus PBP2a assessed as association constant by SPR assay
Quantity name: Ka

Example entries begin here.
[
  {
    "Chem smiles": "COc1ccc(NC(=O)[C@H]2Oc3c(c(=O)oc4ccccc34)[C@@H]2c2ccc(CCCN3CCCC3=O)cc2)cc1",
    "Ka": "2.46 10^4/M/s"
  },
  {
    "Chem smiles": "COc1ccc(-c2cc(=O)oc3c(C)c(OCC(=O)N[C@@H](Cc4c[nH]c5ccc(O)cc45)C(=O)O)ccc23)cc1",
    "Ka": "5.65 10^5/M/s"
  },
  {
    "Chem smiles": "COc1cc2c(c(OC)c1OC)-c1ccc(NCC(=O)NCCc3c[nH]c4ccccc34)c(=O)cc1[C@@H](NC(C)=O)CC2",
    "Ka": "3.48 10^5/M/s"
  }
]

From here, focus on the item given below.
// query Ka value for entry Cc1ccc(NC(=O)[C@H](Cc2c[nH]c3ccccc23)NC(=O)C2CCN(C(=O)CNC(=O)OC(C)(C)C)CC2)cc1
3.28 10^5/M/s
